tgt: human glucagon receptor (Homo sapiens, UniProt P47871)
Construct: made in house; host or cells: FreeStyle CHO cells, transient transfection with pMSRαneo/hGCGR; membrane fraction (35,000 rpm pellet)
Sequence (P47871 26-477): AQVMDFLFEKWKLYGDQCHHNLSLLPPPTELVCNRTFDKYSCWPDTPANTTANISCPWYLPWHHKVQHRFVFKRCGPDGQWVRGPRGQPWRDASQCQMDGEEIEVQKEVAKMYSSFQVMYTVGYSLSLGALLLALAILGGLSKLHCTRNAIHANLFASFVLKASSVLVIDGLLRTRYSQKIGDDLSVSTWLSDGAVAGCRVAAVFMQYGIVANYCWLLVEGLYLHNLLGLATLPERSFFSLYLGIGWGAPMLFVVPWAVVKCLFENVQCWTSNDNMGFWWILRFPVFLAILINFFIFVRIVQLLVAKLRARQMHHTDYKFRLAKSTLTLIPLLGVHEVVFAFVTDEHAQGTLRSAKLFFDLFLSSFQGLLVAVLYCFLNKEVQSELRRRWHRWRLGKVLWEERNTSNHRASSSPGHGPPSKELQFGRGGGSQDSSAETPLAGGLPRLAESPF
assayProtocol: Glucagon binding inhibitory activity ([125I]-glucagon binding to glucagon receptor membrane protein)
conditionSet: test compound 10 μM; 0.4% DMSO = 0%, non-labeled glucagon 1 μM = 100%; read-out: inhibitory rate (%) at 10 μM
Please go through the items and note down their inhibition at 10 µM.
Numbers only, in %.

Reference set, count: 7
Query string: Requested field: inhibition at 10 µM. Item: COc1ccc(-c2ccc3oc(C(Nc4ccc(C(=O)N(C)CCC(=O)O)cc4)C4CCCCC4)c(C)c3c2)cn1 (centres unmarked)
Result string: 98

Query string: Would you mind telling me what inhibition at 10 µM value was observed for CSCCOc1ccc2oc(C(Nc3ccc(C(=O)N(C)CCC(=O)O)cc3)C3CCCCC3)c(C)c2c1 (centres unmarked) ?
Result string: 99

Query string: Suppose we examine the molecule Cc1c(C(Nc2ccc(C(=O)N(C)CCC(=O)O)cc2)C2CCCCC2)oc2cccnc12 (centres unmarked) ; what inhibition at 10 µM value has been reported?
Result string: 68

Query string: What inhibition at 10 µM value was documented for this molecule, Cc1c(C(Nc2ccc(C(=O)N(C)CCC(=O)O)cc2)C2CCCCC2)sc2ccncc12 (centres unmarked) ?
Result string: 76

Query string: Requested read-out: inhibition at 10 µM. Entry: CSCCOc1ccc2oc(C(Nc3ccc(C(=O)NCCC(=O)O)cc3)C3CCCCC3)c(C)c2c1 (centres unmarked)
Result string: 94

Query string: For the molecule COCCOCc1c(C(Nc2ccc(C(=O)N(C)CCC(=O)O)cc2)C2CCCCC2)oc2ccc(F)cc12 (centres unmarked) , what inhibition at 10 µM is on record?
Result string: 80

Query string: Reported inhibition at 10 µM for COc1ccc2oc(C(CC(C)C)Nc3ccc(C(=O)NCCC(=O)O)cc3)c(C)c2c1 (centres unmarked) : what is it?
Result string: 76

// below: inhibition at 10 µM requested for another molecule
Query string: Using the record for Cc1c(C(Nc2ccc(C(=O)N(C)CCC(=O)O)cc2)C2CCCCC2)oc2ccc(N3CCOCC3)cc12 (centres unmarked) , report its inhibition at 10 µM.
Result string: 85

###

Record form. Attribute: inhibition at 10 µM. Fill in for each entry.
tgt: human glucagon receptor (Homo sapiens, UniProt P47871)
Construct: made in house; host or cells: FreeStyle CHO cells, transient transfection with pMSRαneo/hGCGR; membrane fraction (35,000 rpm pellet)
assayProtocol: Glucagon binding inhibitory activity ([125I]-glucagon binding to glucagon receptor membrane protein)
conditionSet: test compound 10 μM; 0.4% DMSO = 0%, non-labeled glucagon 1 μM = 100%; read-out: inhibitory rate (%) at 10 μM
Give bare numbers, in %.

Examples with their reported inhibition at 10 µM follow.
Query string: Recorded inhibition at 10 µM for COCCOc1ccc2oc(C(Nc3ccc(C(=O)NCCC(=O)O)cc3)C3CCCCC3)c(C)c2c1 (stereo not drawn) , please?
Result string: 69

Query string: What inhibition at 10 µM value was documented for this compound, CCOc1cccc(-n2cc(C(CC(C)C)Nc3ccc(C(=O)N(C)CCC(=O)O)cc3)c(CC)n2)c1 (stereo not drawn) ?
Result string: 68

// next entry
Query string: Given the compound CCc1nn(-c2cc(F)cc(F)c2)cc1C(Nc1ccc(C(=O)NCCC(=O)O)cc1)C1CCCCC1 (stereo not drawn) , what is its reported inhibition at 10 µM?
Result string: 71

Data credit: patent US8436043B2
